# Tested on: SKBR3
# procedure summary: Complement dependent cytotoxicity (CDC)
# Assay type: cell-based, human
Where no end group is shown, it is not given here.
Answer each item with its documented averaged percent cytotoxicity.

System SKBR3. Read-out averaged percent cytotoxicity. Item GVVWRYTAPVHLGDG [Peptide G1, GVVWRYTAPVHLGDG] . Report value. 10%

System SKBR3. Read-out averaged percent cytotoxicity. Item GGIYWRYDIYWRYDIYWRYD (Novel Sequence) [Peptide P2, elsewhere called YYRYD motif] . Report value. 80%

System SKBR3. Read-out averaged percent cytotoxicity. Item LDVVLAWRDGLSGAS [Peptide G2, LDVVLAWRDGLSGAS] . Report value. 13%

System SKBR3. Read-out averaged percent cytotoxicity. Item GGIYYRYDIYYRYDIYYRYD (Novel Sequence) [Peptide P3] . Report value. 86%

###

Answer each item with its documented averaged percent cytotoxicity.
# Tested on: OVAR-3
# procedure summary: Complement dependent cytotoxicity (CDC)
# Format: cell-based, human
Where no end group is shown, it is not given here.
Express the result in % but write the number alone.

Tell us which averaged percent cytotoxicity value is on record for GGIYYRYDIYYRYDIYYRYD (Novel Sequence) [Peptide P3] 86

Tell us which averaged percent cytotoxicity value is on record for GVVWRYTAPVHLGDG [Peptide G1, GVVWRYTAPVHLGDG] 9

Tell us which averaged percent cytotoxicity value is on record for GGIYWRYDIYWRYDIYWRYD (Novel Sequence) [Peptide P2, elsewhere called YYRYD motif] 84

Tell us which averaged percent cytotoxicity value is on record for LDVVLAWRDGLSGAS [Peptide G2, LDVVLAWRDGLSGAS] 11

###

Answer each item with its documented averaged percent cytotoxicity.
# Tested on: SKME1-28
# procedure summary: Complement dependent cytotoxicity (CDC)
# Assay type: cell-based, human
Where no end group is shown, it is not given here.
Please give the number followed by its unit.

Tell us which averaged percent cytotoxicity value is on record for GGIYWRYDIYWRYDIYWRYD (Novel Sequence) [Peptide P2, elsewhere called YYRYD motif] 13%

Tell us which averaged percent cytotoxicity value is on record for GVVWRYTAPVHLGDG [Peptide G1, GVVWRYTAPVHLGDG] 75%

Tell us which averaged percent cytotoxicity value is on record for GGIYYRYDIYYRYDIYYRYD (Novel Sequence) [Peptide P3] 32%

Tell us which averaged percent cytotoxicity value is on record for LDVVLAWRDGLSGAS [Peptide G2, LDVVLAWRDGLSGAS] 87%

###

# Test system: WM793
# procedure summary: Complement dependent cytotoxicity (CDC)
# Type: cell-based, human
# Source text: Anti-carbohydrate antibodies may mediate complement dependent cytotoxicity (CDC) better than cytotoxicity associated with various effector cells. Subsequently, we have initially examined CDC mediation of various sera raised either to peptides or against the multivalent LeY-PAA form. […]
Where no end group is shown, it is not given here.
endpoint: averaged percent cytotoxicity (%)
Express the result in % but write the number alone.

Tell us which averaged percent cytotoxicity value is on record for GGIYYRYDIYYRYDIYYRYD (Novel Sequence) [Peptide P3] 28

Tell us which averaged percent cytotoxicity value is on record for GGIYWRYDIYWRYDIYWRYD (Novel Sequence) [Peptide P2, elsewhere called YYRYD motif] 9

Tell us which averaged percent cytotoxicity value is on record for GVVWRYTAPVHLGDG [Peptide G1, GVVWRYTAPVHLGDG] 90

Tell us which averaged percent cytotoxicity value is on record for LDVVLAWRDGLSGAS [Peptide G2, LDVVLAWRDGLSGAS] 90
